Quick reference for Mean relative activity among some molecules
Test system: K562 CRISPRi cells
EXPERIMENT NOTES: Constant region variant library pooled growth screen, K562
Assay type: cell-based, human
APPLIED CONDITIONS: sgRNA constant region variants; activity relative to the original, un-modified constant region cr995
PARAMETER: Mean relative activity

• cr303 (nucleic acid, listed as DNA, chemistry not fully specified) guide: GTTTAAGAGCTAAGCTGGAAACAGCATAGCAACTTTAAATAAGGCTTGTCCGTTATCAACTTGAAAAAGTTGCACCGAGTCGGTGCT = 0.003573
• cr197 (nucleic acid, listed as DNA, chemistry not fully specified) guide: GTTTAAGAGCTAAGCTGGAAACAGCATAGCAAGTTTAAATAATGCTAGTCAGTTATCAACTGGAAACAGTGGCACCGAGTCGGTGCT = 0.06436
• cr816 (nucleic acid, listed as DNA, chemistry not fully specified) guide: GTTTAAGAGCTAAGCTGGAAACAGCATAGCAAGTTTAAATAAGGCTAGTCCGTTATCAACTTGAAAAAGTTGCACCGAGTCGGTGCT = 0.8315
• cr457 (nucleic acid, listed as DNA, chemistry not fully specified) guide: GTTTAAGAGCTAAGCTGGAAACAGCATAGCAAGTTTAAATAAGGCTAGTCCGTTATCAACTTGAAAAAGTGGCACCGAGTCGGTTCT = 0.7254

Source: patent US20220259593A1
